Where do these numbers come from? They come from BindingDB's records for doi:10.1021/np9704922.

Experiment: Inhibition of human synovial secretory PLA2
measured_property: IC50

Report measured IC50; entry is CC1(C)CCC[C@]2(C)[C@H]3CC[C@@H]4[C@H](O)O[C@@H](C5=CC(=O)OC5O)C[C@H]4[C@]3(C)CC[C@@H]12 (stereo partly specified) [Petrosaspongiolide P]
3.8 µM
